System: Candida albicans
Assay: Antifungal activity against fluconazole-resistant Candida albicans ATCC 64550 after overnight incubation by CLSI broth microdilution method
Assay type: functional
Peptide text beside a SMILES is read from it.
Quick reference: MIC of the listed items.

Before answering, review these 2 worked examples.
CC(C)C[C@H](NC(=O)[C@H](CCCCN)NC(=O)[C@@H](N)CC(C)C)C(=O)N[C@@H](CCCCN)C(N)=O (H-LKLK-NH2)
> 100 µM
CCCC[C@H](NC(=O)[C@H](CCCCN)NC(=O)[C@H](CCCC)NC(=O)[C@H](CCCCN)NC(=O)[C@H](CCCC)NC(=O)[C@H](CCCCN)NC(=O)[C@@H](N)CCCC)C(=O)N[C@@H](CCCCN)C(N)=O (HELM PEPTIDE1{[Nle].K.[Nle].K.[Nle].K.[Nle].K.[am]}$$$$V2.0)
1.56 µM

// below: MIC requested for another molecule
Give the reported MIC for this molecule. CC(C)C[C@H](NC(=O)[C@@H](N)CCCCN)C(=O)N[C@@H](CCCCN)C(N)=O (H-Lys-Leu-Lys-NH2)
> 100 µM
